target: acetylcholine receptor; assay: SPR, receptor immobilized, peptide 10 uM
RESULT_TYPE: Binding affinity (RU)

>>> recorded_measurement("RVFLKR [6mer-2-168]")
135
>>> recorded_measurement("KVFCKK [6mer-2-137]")
135
>>> recorded_measurement("RWIYRR [6mer-2-176]")
144
>>> recorded_measurement("RLRLKR [6mer-2-180]")
142
